Origin of values: the supplement of paper PMC13380429

inhibition of SARS-CoV-2 cytopathic effect values by entry
Test system: Vero E6 infected with SARS-CoV-2
assay_name: inhibition of SARS-CoV-2 cytopathic effect; higher = more antiviral protection, active = above 15
test_parameters: 8.33 nM; 48 h
Record the value in %, omitting the unit from your answer.

compound	unit_text	measured_value
Cc1ccc2c(c1)=C(c1ccccc1)C(C1=NN(C(=O)CCC(=O)O)C(c3ccc(Br)cc3)C1)C(=O)N=2 (configuration not stated)	%	-0.1
CC[n+]1c(-c2ccccc2)c2cc(N)ccc2c2ccc(N)cc21	%	6.71
COc1ccc(-c2ccc3ncc4c(c3c2)n(-c2ccc(N3CCNCC3)c(C(F)(F)F)c2)c(=O)n4C)cn1	%	2.5

Prompt line: Consider the compound CCOC(=O)c1ccc(O)cc1 and give its measured inhibition of SARS-CoV-2 cytopathic effect.
Response line: 3.38

Prompt line: Same question, COc1nc(C)nc(Cl)c1NC1=NCCN1 this time
Response line: 1.98

Prompt line: Same question, CNC(=O)c1ccc(-c2cnc3ncc(Cc4ccc5ncccc5c4)n3n2)cc1F this time
Response line: -1.02

====

Test system: Vero E6 infected with SARS-CoV-2
assay_name: inhibition of SARS-CoV-2 cytopathic effect; higher = more antiviral protection, active = above 15
test_parameters: 10000 nM; 48 h
inhibition of SARS-CoV-2 cytopathic effect values by entry
Record the value in %, omitting the unit from your answer.

Solved entries:
compound	measured_value
O=C(O)CSCC(=O)NC1CCSC1=O (configuration not stated) [erdosteine]	1.6
CC(=O)OCC(=O)[C@@]12OC(C)(C)O[C@@H]1C[C@H]1[C@@H]3C[C@H](F)C4=CC(=O)C=C[C@]4(C)[C@@]3(F)[C@@H](O)C[C@@]12C [fluocinonide]	-1.54
C=CCN1CC[C@]23CCCC[C@H]2[C@H]1Cc1ccc(O)cc13 [levallorphan]	-3.54
C#Cc1cccc2c1c(C(=O)c1ccc(Cn3c(C)nc4cnccc43)c(F)c1)cn2C(=O)N(C)C	-1.98
O=C(O)Cc1cccnc1C(=O)O [homoquinolinic-acid]	1.14

Prompt line: Consider the compound CCOC(=O)NNc1ccc(N(CC)CC(C)O)nn1 (configuration not stated) [cadralazine] and give its measured inhibition of SARS-CoV-2 cytopathic effect.
Response line: 0.1

Prompt line: Same question, COc1cc(Nc2nc3ccccc3nc2NS(=O)(=O)c2ccc(NC(=O)c3ccc(C)c(OC)c3)cc2)cc(OC)c1 this time
Response line: 0.57

Prompt line: Same question, CCCCCCN(CCCCCC)C(=O)Cc1c(-c2ccc(F)cc2)[nH]c2ccccc12 this time
Response line: -4.49

Prompt line: Same question, COc1ccc(CCN(C)CCCN2CCc3cc(OC)c(OC)cc3CC2=O)cc1OC [zatebradine] this time
Response line: -2.07

Prompt line: Same question, Cc1cc(Cn2cnc3c2C[C@@H](C(=O)O)N(C(=O)C(c2ccccc2)c2ccccc2)C3)ccc1N(C)C this time
Response line: 0.19

Prompt line: Same question, CC1(C)O[C@@H]2C[C@H]3[C@@H]4CCC5=CC(=O)C=C[C@]5(C)[C@H]4[C@@H](O)C[C@]3(C)[C@]2(C(=O)CO)O1 [desonide] this time
Response line: 1.37

Prompt line: Same question, C[C@@H]1CN(Cc2ccc(F)cc2)CCN1C(=O)COc1ccc(Cl)cc1NC(N)=O this time
Response line: -1.75

Prompt line: Same question, CC[C@H](C)[C@H](N)C(=O)O [isoleucine] this time
Response line: 1.97

Prompt line: Same question, C=C(C)[C@@H]1[C@H]2OC(=O)[C@@H]1[C@]1(O)C[C@H]3O[C@]34C(=O)O[C@H]2[C@]14C [picrotoxinin] this time
Response line: -2.53

Prompt line: Same question, COCc1c(-c2ccc(NC(=O)Nc3cc(C(F)(F)F)ccc3F)c(F)c2)c2c(N)ncnn2c1CN1CCOCC1 this time
Response line: -0.16

Prompt line: Same question, Clc1ccc(C(Cn2ccnc2)OCc2ccc(Sc3ccccc3)cc2)c(Cl)c1 (configuration not stated) [fenticonazole] this time
Response line: 2.21

Prompt line: Same question, CCN1CCN(c2cc(-c3ccc(F)cc3)c3c(n2)CCCCCC3)CC1 [blonanserin] this time
Response line: -3.59
